Where do the numbers come from? From paper PMC8185074.

# assayed target: HDAC2 (Homo sapiens, UniProt Q92769)
# Construct: purchased Reaction Biology Corporation (assay run by the CRO)
# Sequence (Q92769 whole entry): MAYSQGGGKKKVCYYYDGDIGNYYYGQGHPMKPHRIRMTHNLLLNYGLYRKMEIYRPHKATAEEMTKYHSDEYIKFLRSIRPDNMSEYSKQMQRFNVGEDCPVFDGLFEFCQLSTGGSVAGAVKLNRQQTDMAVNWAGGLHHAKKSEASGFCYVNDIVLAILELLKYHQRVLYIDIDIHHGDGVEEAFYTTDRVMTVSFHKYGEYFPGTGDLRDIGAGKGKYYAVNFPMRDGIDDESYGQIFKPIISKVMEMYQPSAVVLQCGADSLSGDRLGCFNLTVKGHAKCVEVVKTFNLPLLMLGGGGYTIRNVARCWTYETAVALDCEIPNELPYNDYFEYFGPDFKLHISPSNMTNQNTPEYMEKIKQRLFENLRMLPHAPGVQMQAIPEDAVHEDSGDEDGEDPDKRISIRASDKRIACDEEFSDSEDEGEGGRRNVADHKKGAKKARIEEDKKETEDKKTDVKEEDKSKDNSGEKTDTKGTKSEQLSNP
# assay protocol: HDAC2 inhibition, full IC50 measurement (Reaction Biology; fluorogenic p53 peptide RHKK(Ac)AMC)
# Type: biochemical
# measurement conditions: Conc. 1.37E-08 M, t2
Peptide text beside a SMILES is read from it.
measure: HDAC2 activity raw data (signal)
Answer as a number with no unit attached.

# HDAC2 activity raw data (signal) of CCCC[C@H]1NC(=O)[C@H](CC(=O)O)NC(=O)[C@@H](CO)NC(=O)[C@@H](C)NC(=O)[C@H](CCCCN)NC(=O)[C@@H](CCCCN)NC(=O)[C@H](Cc2ccccc2)NC(=O)[C@H](CCCCCS)NC1=O [des4.3.1.2, SHA-Phe-dLys-Lys-dAla-dSer-Asp-dNle] (HELM PEPTIDE1{D.[CCCC[C@@H](N[*:1])C(=O)[*:2]].[O=C([C@H](CCCCCS)N[*:1])[*:2]].F.[dK].K.[dA].[dS]}$PEPTIDE1,PEPTIDE1,1:R1-8:R2$$$V2.0) = 1685214

---

# assayed target: HDAC2 (Homo sapiens, UniProt Q92769)
# Construct: purchased Reaction Biology Corporation (assay run by the CRO)
# assay protocol: HDAC2 inhibition, full IC50 measurement (Reaction Biology; fluorogenic p53 peptide RHKK(Ac)AMC)
# Format: biochemical
# measurement conditions: Conc. 5.08E-10 M, t2
# Protocol: The assay was performed using 50 μM fluorogenic peptide from p53 residues 379-382 [RHKK(Ac)AMC] in a base reaction buffer of 50 mM Tris-HCl at pH 8.0, 137 mM NaCl, 2.7 mM KCl, 1 mM MgCl2, and freshly added 1 mg/ml BSA and 1% DMSO. […] Peptide concentrations were calculated based on mass of lyophilized peptide and its molecular weight. […]
Peptide text beside a SMILES is read from it.
measure: HDAC2 activity raw data (signal)

Some molecules with recorded HDAC2 activity raw data (signal):
CCCC[C@H]1NC(=O)[C@H](CC(=O)O)NC(=O)[C@@H](CO)NC(=O)[C@@H](C)NC(=O)[C@H](CCCCN)NC(=O)[C@@H](CCCCN)NC(=O)[C@H](Cc2ccccc2)NC(=O)[C@H](CCCCCS)NC1=O [des4.3.1.2, SHA-Phe-dLys-Lys-dAla-dSer-Asp-dNle] (HELM PEPTIDE1{D.[CCCC[C@@H](N[*:1])C(=O)[*:2]].[O=C([C@H](CCCCCS)N[*:1])[*:2]].F.[dK].K.[dA].[dS]}$PEPTIDE1,PEPTIDE1,1:R1-8:R2$$$V2.0): 1862597
N=C(N)NCCC[C@@H]1NC(=O)[C@H](Cc2c[nH]c3ccccc23)NC(=O)[C@H](CC(=O)O)NC(=O)[C@@H](CO)NC(=O)[C@H](Cc2c[nH]c3ccccc23)NC(=O)[C@H](CCCCCS)NC(=O)[C@H](CCC(N)=O)NC1=O [des4.1.0, SHA-Trp-dSer-Asp-Trp-Arg-Gln] (HELM PEPTIDE1{D.W.R.Q.[O=C([C@H](CCCCCS)N[*:1])[*:2]].W.[dS]}$PEPTIDE1,PEPTIDE1,1:R1-7:R2$$$V2.0): 1807628
CCCC[C@H]1NC(=O)[C@H](Cc2ccccc2)NC(=O)[C@H](CCCCCS)NC(=O)[C@@H](CO)NC(=O)[C@H](CC(=O)O)NC(=O)[C@@H](CO)NC(=O)[C@@H](C)NC(=O)[C@H](CCCCN)NC1=O [des4.3.1.1, SHA-Phe-dNle-Lys-dAla-dSer-Asp-dSer] (HELM PEPTIDE1{D.[dS].[O=C([C@H](CCCCCS)N[*:1])[*:2]].F.[CCCC[C@@H](N[*:1])C(=O)[*:2]].K.[dA].[dS]}$PEPTIDE1,PEPTIDE1,1:R1-8:R2$$$V2.0): 1875796
CC(C)C[C@H]1NC(=O)[C@H](Cc2c[nH]c3ccccc23)NC(=O)[C@H](CCCCCS)NC(=O)[C@@H](Cc2ccc(O)cc2)NC(=O)[C@@H](C(C)C)NC(=O)[C@H](Cc2c[nH]cn2)NC(=O)CNC(=O)CNC(=O)[C@@H](CO)NC1=O [des2.2.0, SHA-Trp-dLeu-dSer-Gly-Gly-His-dVal-dTyr] (HELM PEPTIDE1{G.G.H.[dV].[dY].[O=C([C@H](CCCCCS)N[*:1])[*:2]].W.[dL].[dS]}$PEPTIDE1,PEPTIDE1,1:R1-9:R2$$$V2.0): 668167
NCCCC[C@H]1NC(=O)[C@H](CCC(N)=O)NC(=O)[C@H](CCC(=O)O)NC(=O)[C@@H]2CCCN2C(=O)[C@H](CC(N)=O)NC(=O)[C@H](CCCCCS)NC(=O)CNC(=O)[C@H](Cc2c[nH]c3ccccc23)NC1=O [des1.1.1, SHA-Asn-Pro-Glu-Gln-dLys-Trp-Gly] (HELM PEPTIDE1{E.Q.[dK].W.G.[O=C([C@H](CCCCCS)N[*:1])[*:2]].N.P}$PEPTIDE1,PEPTIDE1,1:R1-8:R2$$$V2.0): 1054303

As a next step, examine the molecule that follows.
The measured HDAC2 activity raw data (signal) associated with CCCC[C@H]1NC(=O)[C@H](Cc2ccccc2)NC(=O)[C@H](CCCCCS)NC(=O)[C@@H](CCCNC(=N)N)NC(=O)[C@H](CC(=O)O)NC(=O)[C@@H](CO)NC(=O)[C@@H](C)NC(=O)[C@H](CCCCN)NC1=O [des4.3.1, SHA-Phe-dNle-Lys-dAla-dSer-Asp-dArg] (HELM PEPTIDE1{D.[dR].[O=C([C@H](CCCCCS)N[*:1])[*:2]].F.[CCCC[C@@H](N[*:1])C(=O)[*:2]].K.[dA].[dS]}$PEPTIDE1,PEPTIDE1,1:R1-8:R2$$$V2.0) reads 1137899
